- assay_info: qHTS Assay for Lipid Storage Modulators in Drosophila S3 Cells;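 note: cells counted by Cell Tracker Red CMTPX staining in the red channel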
- cond: BODIPY lipid droplet fluorescence, 18-24 h, cells fed with added oleic acid; measured here: cell count max response
Out of some 320,000 compounds screened, about 2,100 (0.66%) were called active. Another 53% or so got no clear call; they are omitted. The entries come from a sample that favours actives as a whole.
experimental_endpoint: cell number change (%)

compound=CCCc1cc(=O)oc2c(C)c(OCC(=O)NCCCN3CCOCC3)ccc12 result_units=% result_value=7.37
compound=CCn1c(C)c(C(C)=O)c(SC)nc1=S result_units=% result_value=-9.08
compound=Cc1ccc(S(=O)(=O)N2CCN(C(=O)CN3CCc4ccccc4C3)CC2)cc1 result_units=% result_value=21.3
compound=Cc1cc(=O)oc2c(C)c(OCC(=O)NCCCN3CCCC3=O)ccc12 result_units=% result_value=-21.7
compound=CSS(=O)(=O)c1cccc2cccnc12 result_units=% result_value=-61.8
compound=CCSc1nc(=S)n(CC)c(C)c1C(C)=O result_units=% result_value=11
compound=CCCc1cc(=O)oc2c(C)c(OCC(=O)NCCN3CCOCC3)ccc12 result_units=% result_value=19.4
compound="CC12C(=O)N(NC(=O)c3ccncc3)C(=O)C1C1C=CC2C1 (stereo not given)" result_units=% result_value=6.42
compound="Cc1cc(C(c2nnnn2Cc2ccccc2)N2CCOCC2)c(C)n1-c1ccc2c(c1)OCO2 (stereo not given)" result_units=% result_value=-6.63
compound=CCc1cc(=O)oc2cc(OCC(=O)NCCCN3CCCC3=O)c(Cl)cc12 result_units=% result_value=11.6
compound="CC(Oc1cc2oc(=O)c3c(c2cc1Cl)CCC3)C(=O)NCCCN1CCCC1=O (stereo not given)" result_units=% result_value=-19.6
compound=Cc1cc(=O)oc2cc(OCC(=O)NCCCN3CCCC3=O)c(Cl)cc12 result_units=% result_value=-17.4
compound=Cc1ccc(S(=O)(=O)N(CC(=O)O)Cc2ccco2)cc1 result_units=% result_value=0.734
compound="COc1ccccc1NC(=O)C1CCCN(c2ncnc3c2nc2n3CCCCC2)C1 (stereo not given)" result_units=% result_value=-12.6
compound=CCN(CC)S(=O)(=O)c1cccc2cccnc12 result_units=% result_value=-17.9
